Cited source: ChEMBL document CHEMBL5131569

- TEST_DESCRIPTION: Drug concentration in CD-1 mouse brain at 7.5 mg/kg, ip administered for 90 mins
- Format: ADME, organism-based
- PROTOCOL_CONDITIONS: read-out: Ct
PROPERTY_MEASURED: concentration at 1.5 h

> print(dat)
                                   compound  data.value
1  C[C@H](CC[C@](C)(O)C(F)(F)F)[C@H]1CC[C@H]2[C@@H]3CC=C4C[C@@](C)(O)CC[C@]4(C)[C@H]3CC[C@]12C [DALZANEMDOR]   1190 ng/g

* * *

// Emax lookup, one value per entry
- TARGET_DESC: Glutamate NMDA receptor; GRIN1/GRIN2B (Homo sapiens, UniProt Q05586+Q13224)
- TEST_DESCRIPTION: Positive allosteric modulation of recombinant human GluN1/GluN2B receptor stably expressed in HEK293 cells assessed as increase in glycine/L-glutamate-induced channel current at -70 mV holding potential by whole cell patch clamp method relative to control
- Format: cell-based
- PROTOCOL_CONDITIONS: filed as positive allosteric modulator
PROPERTY_MEASURED: Emax (%)

> print(dat)
                           smiles.structure  property.measured  data.value
1  CC(C)[C@@](C)(O)CC[C@@H](C)[C@H]1CC[C@H]2[C@@H]3CC=C4C[C@@](C)(O)CC[C@]4(C)[C@H]3CC[C@]12C               Emax         220
2  C#C[C@@](C)(O)CC[C@@H](C)[C@H]1CC[C@H]2[C@@H]3CC=C4C[C@@](C)(O)CC[C@]4(C)[C@H]3CC[C@]12C               Emax          56
3  CCCC[C@@](C)(O)CC[C@@H](C)[C@H]1CC[C@H]2[C@@H]3CC=C4C[C@@](C)(O)CC[C@]4(C)[C@H]3CC[C@]12C               Emax         170
4  C[C@H](CC[C@](C)(O)C(F)(F)F)[C@H]1CC[C@H]2[C@@H]3CC=C4C[C@@](C)(O)CC[C@@H]4[C@H]3CC[C@]12C               Emax          52
5  CC[C@@](C)(O)CC[C@@H](C)[C@H]1CC[C@H]2[C@@H]3CC=C4C[C@@](C)(O)CC[C@]4(C)[C@H]3CC[C@]12C               Emax         190
6  CC(C)[C@](C)(O)CC[C@@H](C)[C@H]1CC[C@H]2[C@@H]3CC=C4C[C@@](C)(O)CC[C@]4(C)[C@H]3CC[C@]12C               Emax         150
